Recorded values, source PubChem BioAssay.

Entries and their composite z-score values follow.
Tested on: Plasmodium falciparum Sir2 (PF13_0152, Sir2A)
Test method notes: Plasmodium falciparum Sir2A binding compounds – biochemical, small-molecule microarray, 635 nm fluorescence, primary screen (AID 1098);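 also: score merges spot fluorescence intensity with its signal-to-noise ratio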
Reported conditions: fluorescence 635 nm, higher = more signal

- Compound structure string: "CCCCCCc1nc(Cc2cc(OC)c(OC)c(OC)c2)cc2c1[Si](C(C)C)(C(C)C)OC2"
  composite z-score: 0.209
- Compound structure string: "CCCC[C@@H](O)C1=C(COC)C[C@H]2C(=O)N(C)C(=O)[C@H]2[C@H]1CO"
  composite z-score: 0.0237
- Compound structure string: "COCCOC(=O)N1C(=O)[C@@]2(c3cc(C#CC4(O)CCCCCC4)ccc31)[C@H](C(=O)Nc1nc3ccccc3s1)[C@H]1C(=O)O[C@H](c3ccccc3)[C@H](c3ccccc3)N1[C@@H]2c1ccc(O)cc1"
  composite z-score: 1.26
- Compound structure string: "CCCC=C(CCC)[C@@H](NC(=O)c1cccs1)c1ccc(C(=O)OC)cc1"
  composite z-score: 0.366

---

Test method notes: S. pombe growth modifiers, basal conditions – strain 972, OD600, 24 h, no modulator, primary screen (AID 1090);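 also: basal condition with compound alone and no growth modifier present; test concentration not given here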
Reported conditions: S. pombe 972 growth, called active from +8 up or from −8 down
Activity calls are given as the source filed them.
Outcome codes: yes (1) for active, no (0) for inactive

- Compound: "C=CCN1C(=O)[C@]2(CCS(=O)(=O)c3ccccc3)N=C(c3ccc(OCCCO)cc3)O[C@@H]2c2ccccc21"
  Class label: "no (0)"
- Compound: "CCCCCCc1nc(Cc2cc(OC)c(OC)c(OC)c2)cc2c1[Si](C(C)C)(C(C)C)OC2"
  Class label: "no (0)"
- Compound: "[N-]=[N+]=NCc1ccccc1C[C@@]1(C(N)=O)N=C(c2ccc(OCCCO)cc2)O[C@@H]1c1ccccc1"
  Class label: "no (0)"
- Compound: "O=C1C[C@]2(c3ccc([N+](=O)[O-])cc3)C(=O)N(C3CC3)c3cc(CO)ccc3[C@H]2N1CC12CC3CC(CC(C3)C1)C2"
  Class label: "no (0)"
- Compound: "COc1ccc([Si](C)(C)[C@@H]2[C@@H](CCO)O[C@]3(C(=O)N(Cc4ccccc4)c4ccc(N5C(=O)c6cccc7cccc5c67)cc43)[C@H]2C)cc1"
  Class label: "no (0)"
- Compound: "[N-]=[N+]=Nc1ccccc1C[C@]1(C(=O)N2CCOCC2)COC(c2ccc(OCCCO)cc2)=N1"
  Class label: "no (0)"
- Compound: "COc1ccc([Si](C)(C)[C@@H]2[C@@H](CCO)O[C@]3(C(=O)N(Cc4ccccc4)c4ccc(NC(=O)[C@H](C)O)cc43)[C@H]2C)cc1"
  Class label: "no (0)"
- Compound: "[N-]=[N+]=NCc1ccccc1[C@@H]1OC(c2ccc(OCCCO)cc2)=N[C@]1(CCS(=O)(=O)c1ccccc1)C(=O)O"
  Class label: "no (0)"
- Compound: "CCOC(=O)C[C@H]1[C@H](OC(=O)c2cc3ccccc3oc2=O)[C@@H](NC(=O)c2ccccc2)c2cc(OCCCO)ccc2N1C(=O)c1ccccc1"
  Class label: "no (0)"
- Compound: "COc1cc(C(O)C2C=CC3C(=O)N(C)C(=O)C3N2Nc2ccccc2)cc(OC)c1OC (stereo not given)"
  Class label: "no (0)"
- Compound: "O=C(O)[C@@H]1C[C@@H]2C(=O)N3CCC[C@H]3C(=O)N2[C@@H]1c1ccc(O)cc1"
  Class label: "no (0)"
- Compound: "[N-]=[N+]=Nc1ccccc1C[C@@]1(C(=O)N2CCOCC2)N=C(c2ccc(OCCCO)cc2)O[C@@H]1c1ccccc1"
  Class label: "no (0)"
- Compound: "O=C1OCCC=C[C@H]2OC34C=CCN(Cn5nnc6ccccc65)C(=O)[C@H]3N(CCCO)C(=O)[C@@H]4C12 (stereo not given in full)"
  Class label: "no (0)"
- Compound: "CC(C)C(CO)N1C(=O)[C@@H]2C3C(=O)OCCC/C=C\\[C@H]3OC23C=CCN(Cn2nnc4ccccc42)C(=O)[C@@H]13 (stereo not given in full)"
  Class label: "no (0)"
- Compound: "COc1ccc(CCNC(=O)[C@@]2(c3ccc([N+](=O)[O-])cc3)CC(=O)N(C3CCCCC3)[C@@H]2c2ccc(CO)cc2)cc1"
  Class label: "no (0)"
- Compound: "CC(C)N1CC=CC23O[C@@H]4C=CCCOC(=O)C4[C@H]2C(=O)N(CCCO)[C@@H]3C1=O (stereo not given in full)"
  Class label: "no (0)"
- Compound: "O=C(C1N=C(c2ccc(OCCCO)cc2)N(c2ccccc2)O1)N1CCCCC1 (stereo not given)"
  Class label: "no (0)"
- Compound: "O=c1cccc(-c2ccc([N+](=O)[O-])cc2)o1"
  Class label: "no (0)"
- Compound: "CCOC(=O)C[C@H]1[C@H](OC(=O)c2ccc(C(=O)c3ccccc3)cc2)[C@@H](NC(=O)c2ccc3ccccc3n2)c2cc(OCCCO)ccc2N1C(=O)Cc1ccc(OC)cc1"
  Class label: "no (0)"
- Compound: "CS(=O)(=O)CCOC(=O)C1=CC(c2ccc(CO)cc2)=CC(C2CC2)N(Cc2sc3ccccc3c2Cl)C=C1C(=O)OCCS(C)(=O)=O (stereo not given)"
  Class label: "no (0)"
- Compound: "CCCCC(=C=CC[C@H](O)c1ccc(OCCO)cc1)CCO"
  Class label: "no (0)"
- Compound: "[N-]=[N+]=Nc1ccccc1C[C@]1(C(=O)O)COC(c2ccc(OCCCO)cc2)=N1"
  Class label: "no (0)"
- Compound: "O=C1N(Cc2ccccc2)c2ccccc2C[C@]12N=C(c1ccc(OCCCO)cc1)O[C@@H]2c1ccccc1"
  Class label: "no (0)"
- Compound: "COc1cc2c(cc1O)C(c1ccc(CN3CCCC3)cc1)N(Cc1cc3c(cc1Br)OCO3)CC2 (stereo not given)"
  Class label: "no (0)"
- Compound: "CCOC(=O)C[C@H]1[C@H](OC(=O)Cc2ccc3c(c2)OCO3)[C@@H](NC(=O)c2ccc3ccccc3n2)c2cc(OCCCO)ccc2N1C(=O)c1ccccc1"
  Class label: "no (0)"
- Compound: "C=CCNC(=O)[C@@H]1[C@H]2C(=O)O[C@H](c3ccccc3)[C@H](c3ccccc3)N2[C@H](c2ccccc2OCCO)[C@@]12C(=O)Nc1ccc(C#CCC(C(=O)OC)C(=O)OC)cc12"
  Class label: "no (0)"
- Compound: "CO[C@H]1O[C@H](CO)[C@@H](OC(=O)Nc2ccc(Br)cc2)[C@@H]2OC(=O)[C@@H](Cc3ccccc3)C/C=C/C[C@H](Cc3ccccc3)C(=O)O[C@@H]12"
  Class label: "no (0)"
- Compound: "CC#CCO[Si](C#Cc1ccccc1)(C(C)C)C(C)C"
  Class label: "yes (1)"
- Compound: "CCOC(=O)C1=CC[C@@H](c2ccccc2F)N(S(=O)(=O)c2ccc(C)cc2)[C@H]1c1ccccc1"
  Class label: "no (0)"
- Compound: "COc1ccc(C#Cc2ccc3c(c2)[C@]2(C(=O)N3)[C@H](c3ccc(O)cc3)N3[C@H](c4ccccc4)[C@H](c4ccccc4)OC(=O)[C@H]3[C@@H]2C(=O)Nc2nc3ccccc3s2)cc1"
  Class label: "no (0)"
